Below, each entry is listed with its recorded IC50.
molecular target: PI3K-α (PIK3CA) in MDA-MB-453 cells (Homo sapiens); assay: PI3K-alpha kinase (PIK3CA) in vitro cell based assay, MDA-MB-453 cells, SureFire Ultra AlphaLisa; conditions: read-out: PI3K-α (PIK3CA) in vitro cell based assay IC50
Sequence (P27986 2-724): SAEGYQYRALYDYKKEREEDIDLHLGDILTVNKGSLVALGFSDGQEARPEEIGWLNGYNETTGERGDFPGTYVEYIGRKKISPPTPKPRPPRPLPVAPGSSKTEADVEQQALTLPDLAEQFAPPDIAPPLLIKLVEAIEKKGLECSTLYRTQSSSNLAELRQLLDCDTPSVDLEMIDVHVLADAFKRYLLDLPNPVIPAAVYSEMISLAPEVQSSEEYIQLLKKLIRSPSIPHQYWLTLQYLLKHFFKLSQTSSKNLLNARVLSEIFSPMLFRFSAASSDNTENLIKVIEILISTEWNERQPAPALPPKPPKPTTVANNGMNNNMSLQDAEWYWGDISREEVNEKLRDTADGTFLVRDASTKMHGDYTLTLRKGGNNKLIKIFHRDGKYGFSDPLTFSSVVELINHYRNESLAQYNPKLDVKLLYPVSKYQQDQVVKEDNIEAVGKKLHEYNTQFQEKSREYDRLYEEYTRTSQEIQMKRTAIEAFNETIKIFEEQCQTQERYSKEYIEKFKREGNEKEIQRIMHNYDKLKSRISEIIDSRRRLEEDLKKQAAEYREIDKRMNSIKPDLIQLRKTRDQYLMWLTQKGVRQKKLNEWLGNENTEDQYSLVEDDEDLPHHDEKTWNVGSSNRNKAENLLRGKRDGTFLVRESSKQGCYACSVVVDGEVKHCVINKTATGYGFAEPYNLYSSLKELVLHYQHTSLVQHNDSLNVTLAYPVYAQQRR
Sequence (P42336 whole entry): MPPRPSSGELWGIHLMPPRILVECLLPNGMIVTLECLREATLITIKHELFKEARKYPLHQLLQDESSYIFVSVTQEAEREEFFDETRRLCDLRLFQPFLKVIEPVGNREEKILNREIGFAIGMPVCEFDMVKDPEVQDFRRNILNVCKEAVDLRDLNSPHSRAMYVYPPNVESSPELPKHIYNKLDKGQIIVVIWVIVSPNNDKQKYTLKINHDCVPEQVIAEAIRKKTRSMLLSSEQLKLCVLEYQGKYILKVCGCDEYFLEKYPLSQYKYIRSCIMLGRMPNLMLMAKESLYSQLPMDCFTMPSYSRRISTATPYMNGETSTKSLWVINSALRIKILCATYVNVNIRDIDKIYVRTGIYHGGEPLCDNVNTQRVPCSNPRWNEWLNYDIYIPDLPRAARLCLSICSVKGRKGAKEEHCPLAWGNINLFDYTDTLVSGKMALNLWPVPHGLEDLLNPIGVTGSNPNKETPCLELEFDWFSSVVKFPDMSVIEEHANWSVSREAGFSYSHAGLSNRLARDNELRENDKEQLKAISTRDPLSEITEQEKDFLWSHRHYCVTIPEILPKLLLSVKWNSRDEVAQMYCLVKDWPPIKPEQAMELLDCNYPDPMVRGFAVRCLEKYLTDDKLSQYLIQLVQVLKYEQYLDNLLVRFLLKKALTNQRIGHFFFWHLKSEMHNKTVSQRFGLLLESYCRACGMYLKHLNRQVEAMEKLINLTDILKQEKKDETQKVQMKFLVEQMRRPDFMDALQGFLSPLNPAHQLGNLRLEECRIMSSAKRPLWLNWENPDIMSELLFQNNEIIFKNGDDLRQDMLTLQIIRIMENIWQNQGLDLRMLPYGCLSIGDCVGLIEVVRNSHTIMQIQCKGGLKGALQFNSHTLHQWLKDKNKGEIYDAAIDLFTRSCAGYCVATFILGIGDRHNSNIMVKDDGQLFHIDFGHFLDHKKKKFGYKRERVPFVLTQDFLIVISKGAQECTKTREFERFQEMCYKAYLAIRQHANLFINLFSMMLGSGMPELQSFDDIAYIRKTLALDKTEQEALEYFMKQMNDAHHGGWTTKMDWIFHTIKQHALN
quantity: IC50

                                    molecule  recorded_value
 0  Cc1cc([C@@H](C)Nc2ccc(F)c(F)c2C(=O)O)c2oc(-c3ccc4nn(C)cc4c3)c(C)c(=O)c2c1    50 to 100 nM
 1  C[C@@H](Nc1ccc(Cl)nc1C(=O)O)c1cc(C(F)(F)F)cc2c(=O)cc(-c3ccc4nn(C)cc4c3)oc12    50 to 100 nM
 2  Cc1cc(-c2cc(=O)c3cc(C(F)(F)F)cc(C(C)Nc4ccc(Cl)nc4C(=O)O)c3o2)cc2cn(C)nc12 (single isomer, unassigned) [Example 191]   100 to 500 nM
 3  Cc1cc([C@@H](C)Nc2cccc(F)c2C(=O)O)c2oc(-c3ccc4c(cnn4C)c3)cc(=O)c2c1         < 50 nM
 4  Cc1cc(C(C)Nc2ccc(Cl)nc2C(=O)O)c2oc(-c3nn(C)c4ccccc34)c(C)c(=O)c2c1 (single isomer, unassigned)         < 50 nM
 5  Cc1cc(C(C)Nc2ccccc2C(=O)O)c2oc(-c3ccc4nn(C)cc4c3)cc(=O)c2c1 (single isomer, unassigned) [Example 75]         < 50 nM
 6  Cc1cc([C@@H](C)Nc2ccc(Cl)cc2C(=O)O)c2oc(-c3ccc4c(cnn4C)c3)c(C)c(=O)c2c1    50 to 100 nM
 7  Cc1cc(C(C)Nc2ccccc2C(=O)O)c2oc(-c3cc4ccncc4o3)cc(=O)c2c1 (single isomer, unassigned) [Example 40]   100 to 500 nM
 8  Cc1cc(C(C)Nc2ccc(Cl)nc2C(=O)O)c2oc(-c3cc4ccccc4[nH]3)cc(=O)c2c1 (single isomer, unassigned)         < 50 nM
 9  Cc1cc([C@@H](C)Nc2ccc(Cl)nc2C(=O)O)c2oc(-c3ccc4nc(C)sc4n3)cc(=O)c2c1    50 to 100 nM
10  Cc1cc(C(C)Nc2ccccc2C(=O)O)c2oc(-c3cc(C)c4nn(C)cc4c3)cc(=O)c2c1 (single isomer, unassigned) [Example 144]         < 50 nM
11  Cc1cc(C(C)Nc2ccccc2C(=O)O)c2oc(-c3ccc4nn(C)cc4n3)cc(=O)c2c1 (single isomer, unassigned)         < 50 nM
12  Cc1cc(C(C)Nc2ccc(Cl)nc2C(=O)O)c2oc(-c3ccc4c(c3)c(C)nn4C)cc(=O)c2c1 (single isomer, unassigned)         < 50 nM
13  Cc1cc(C(C)Nc2ccccc2C(=O)O)c2oc(-n3ncc4c(F)cccc43)cc(=O)c2c1 (single isomer, unassigned)    50 to 100 nM
14  Cc1cc(C(C)Nc2ccccc2C(=O)O)c2oc(-c3ccc4ccn(C)c4c3)cc(=O)c2c1 (single isomer, unassigned)         < 50 nM
15  Cc1cc(C(C)Nc2ccccc2C(=O)O)c2oc(-c3cc4ccncc4o3)cc(=O)c2c1 (stereo not shown) [Example 7]    50 to 100 nM
